Origin of measurements: the supplement of paper PMC9170038

Tested on: MS2 coat protein
protocol notes: apparent KD of MS2 coat protein; designed switch direction (-1 OFF switch, 1 ON switch): -1; higher = weaker reporter binding
measurement context: Eterna round: R95; input ligand: FMN 200 uM
property label: apparent KD of MS2 coat protein (nM)
Answers are plain numbers, in nM.

Below, each entry is followed by its recorded apparent KD of MS2 coat protein result.
(Q) Note apparent KD of MS2 coat protein for the sequence shown: UCAUGUAUGUAGGAUAUCGAUGUCGAAAGACAUCGAGAAGGACGUACAUGAGGAUCACCCAUGUAACUUGCAUG [Exclusion 6 - B - 11:a] (puzzle: Exclusion 6)
(A) 12.9

(Q) Note apparent KD of MS2 coat protein for the sequence shown: GAUUAUGCGAGCUUUAGGGACAUGAGGAUCACCCAUGUUCGUCUUAUUAGUCUAGGUACACUAACAUACCUAAAUCU [JMF 18] (puzzle: Sensor v3, turn-off variant 1)
(A) 21.3

With those in mind, consider the next sequence.
(Q) Note apparent KD of MS2 coat protein for the sequence shown: GUGUAAGGAGGAUAUACAUGAGGAUCACCCAUGUGAAUAAGAUAGAAUAAGAUAAAGUGUAGAAGGCUUAGUGU [Excluse me!!! 25 - Jieux - Exclusion 3] (puzzle: Exclusion 3)
(A) 39

----------
Assign apparent KD of K4 kissing-loop reporter to each entry below.
System: K4 kissing-loop RNA reporter;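 note: bound reporter read as fluorescence of individual clusters on recovered sequencing chips by microscopy, with normalized cluster intensities fitted with a binding model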
protocol notes: apparent KD of K4 kissing-loop reporter; higher = weaker reporter binding
measurement context: Eterna round: R107; input ligand: theophylline 20 uM
Numbers only, in nM.

Below, each entry is followed by its recorded apparent KD of K4 kissing-loop reporter result.
(Q) Note apparent KD of K4 kissing-loop reporter for the sequence shown: CCAGGAUGAUGAGGAUGAUAAAUUACUGAAGGAGCGCAUAUGGUUGCAGGUAGGUCGCGGUGAAUAAGUAUAGUGAUGUUAUGCC [SSArgA.Y]
(A) 801

(Q) Note apparent KD of K4 kissing-loop reporter for the sequence shown: UUCUUGAUGGAAACAUCGAGGAUUACUGAUACCAGUAUCGAUAGAUACCCUUGGCAGCAGUAUCGGUGAUCACGAGUGAUGUUCG [Ex Theophylline A K4 11]
(A) 757

(Q) Note apparent KD of K4 kissing-loop reporter for the sequence shown: AGUAUAGAGUCGGCCGCCACUGGUUUUAUGUGUGUCAAAUCUGGAUCAAAGUGAUGUUUUGAGACUAGGACCGGGACCAUUGUUA [#06 K4 Tryptophan B Exclusion]
(A) 131

(Q) Note apparent KD of K4 kissing-loop reporter for the sequence shown: CGCGCGGGUUUGAGAGGGUUCGCGCGAAGUGAGGAUAUUUAGGGAGAAAGAAGGCACUAUAAAAUAUAGUGAUGUUAUAUAAGGG [SSFMNA.H]
(A) 371

(Q) Note apparent KD of K4 kissing-loop reporter for the sequence shown: AAGCAGUCCCUUGUUGUCAUCGAAGAUGAACGAGGACCGGUACGGCCGCCACUCGGAGUGAUGUUCCGAAGGCUGCAAAAUAAAA [MatMod 20 - Jieux - Exclusion - Tryptophan A]
(A) 115

With those in mind, consider the next sequence.
(Q) Note apparent KD of K4 kissing-loop reporter for the sequence shown: UGAUUUAACUGAAGGAGCGGCAAUUGAUAAGUAAAUAUAGUGAUGUUAUAUAAGAUAGAGAGCCAGGUAGGUCGCAGAGGUAUUU [ExArgB.N]
(A) 153
